Measured melting point, listed per entry.

# example entries with known answers
molecule	melting point
N#CC1CCn2c(cc3ccccc32)C1 (stereo unspecified)	116 to 118 °C
CSCc1cc(C(C)=O)c(O)cc1OCCCCCCC#N	78 °C
CCOC(=O)[C@@H](NC(=O)c1cc(-c2ncc(C(F)(F)F)cc2Cl)ccc1Cl)C(C)C	90 to 92 °C
Cc1ccc(CCCO)c(NCc2ccc3nc(NCCCN4CCOCC4)n(Cc4cc(Br)ccc4O)c3c2)c1	134 °C
CC(C)(CC(O)(Cn1ccc2c1CCCC2=O)C(F)(F)F)c1cc(S(C)(=O)=O)cc2c1OCC2 (stereo unspecified)	207 to 208 °C

Reported melting point for "O=C(Nc1ccc(-c2nc(-c3ccco3)no2)c(Cl)c1)OCC(Cl)(Cl)Cl" was 219 to 220 °C

For reference, reported melting point for "CC(C)(C)OC(=O)N[C@@H](Cc1ccccc1)c1nc2c(C(F)(F)F)cccc2c(=O)o1" stands at 145 °C

Just so you know, measured melting point for CC1CC(=O)C(C(=O)CCC2CCCO2)C(=O)O1 (stereo unspecified) came out at 43 to 45 °C

Record summary for "Oc1cc(CN/C=C2\CN=Cc3ccc(Br)cc32)ccc1OC(F)F" : reported melting point = 256 to 258 °C

The recorded melting point for "O=Cc1cc2ccccc2[nH]1" is 134 to 137 °C

// field: melting point; key: "O=C1CCCc2c(Cl)cccc2-c2ccccc21" ; value = 118 °C

###

Here the recorded melting point is given for each entry.

Solved entries:
compound	test-result
CCCCCCCCCCC#Cc1c2ccccc2c2ccc3c(C#CCCCCCCCCCC)c4ccccc4c4ccc1c2c34	129 to 130 °C
COc1cccc(CC(=O)O)c1OCCCc1cn(-c2ccc([N+](=O)[O-])cn2)nc1C(C)C	161 to 162 °C
Oc1ccc(-c2nc3cc(O)cc(C(Br)CBr)c3o2)cc1 (stereo unspecified)	175 to 177 °C
COc1ccc(CNC(=O)c2ccccc2)cc1	98 to 99 °C
Fc1cc2c(Nc3ccc(OCc4cccc(Cl)c4)c(Cl)c3)ncnc2cn1	196 to 198 °C
CCCc1ccc(-n2cnc(-c3ccc(C#N)cc3)c2)cc1	133 °C

Data point: "Cc1ccc(CC2CCN(C(=O)C(=O)Nc3ccc4[nH]c(=O)oc4c3)CC2)cc1" ; melting point = 133 to 135 °C

Please fill in: melting point reported for "O=[PH](c1ccc2ccccc2c1)c1ccc2ccccc2c1" = 98.3 °C

The recorded melting point for entry O=C1Nc2ccc(Cl)cc2CN2CCCC12 (stereo unspecified) equals 97 to 99 °C

###

readout-kind: melting point

molecule	readout-kind	test-result
CC(=O)c1ccc(OC(C)c2ccnc3ncnn23)cc1 (stereo not drawn)	melting point	136 to 138 °C
O=C1c2ccccc2C(=O)N1CCSc1nccc(NC(=S)NCC(F)(F)F)n1	melting point	238 to 241 °C
CC(c1oc2ccccc2c(=O)c1-c1cccc(F)c1)n1nc(-c2ccc(C=O)o2)c2c(N)ncnc21 (stereo not drawn)	melting point	215 to 217 °C

Entry "CN1C(=O)CCC2=C1CCc1cccc(F)c12" ; melting point = 75 to 76 °C

Reported melting point ( "Cc1cc(SCc2ccc(OCc3ccc(C(F)(F)F)cc3)cc2)ccc1OCC(=O)O" ) = 133 °C

The recorded melting point for entry "CCCCCCCCCCCCCCCCCCOc1cc(N)cc(C(=O)N(CC(=O)O)CC(=O)O)c1" equals 108 to 120 °C

###

readout-kind: melting point

Sample records with melting point:
compound	test-result
CN1C(=O)N(c2ccccc2F)C(=O)C1=CC1CCCCC1	131 to 137 °C
NC(=O)Cc1cnc2c(NC(=O)c3c(Cl)cccc3Cl)cccc2c1	251 to 253 °C
CCOCn1cc(Cl)c(O)cc1=O	217 to 219 °C
O=C(Nc1ccc2cc(CN3CCC(CCO)CC3)cnc2c1)c1ccc(-c2ccc(F)cc2)cc1	193 to 196 °C
CCC(CC)COc1c(C)nc(N)nc1N	142 to 143 °C
NS(=O)(=O)c1cccc(C=NO)c1	107 to 108 °C
COc1ccc(-c2ccc(C(=O)Nc3cc4ncc(CN5CCCC5)cc4cc3C)c(F)c2)cc1	187 to 190 °C
CC1CC(=O)NN=C1c1ccc(-n2cccc2)nc1 (stereo unspecified)	192 to 193 °C
CC(c1ccccc1N1CCCCC1)C(C(N)=O)c1ccc(C(=O)OCc2ccccc2)cc1 (stereo unspecified)	126 to 128 °C
CC/C(=C(\c1ccc(/C=C/C(=O)O)cc1)c1ccc(OC(=O)COC)cc1)c1ccccc1	190 to 191 °C

The recorded melting point for "COc1cccc2c1C(=O)c1c(OC)cc(-c3nc4ccccc4n3C)cc1C2=O" is 283 to 284 °C

The value of melting point measured for the compound CC(C)n1nc(C(Cl)C(=O)c2cccc(F)c2)ccc1=O (stereo unspecified) turned out to be 65.5 to 66.5 °C

melting point reported for this compound "O=[N+]([O-])c1ccccc1Sc1ccncc1" : 119 to 122 °C

###

Entries and their melting point

In the examples that follow, each entry is paired with its recorded melting point.
compound	melting point
COC(=O)c1cc(S(=O)(=O)NC(=O)Nc2nc(C)cc(C)n2)c[nH]1	202 to 204 °C
COc1ccc(-c2ccc3c(Cl)c(OC)ccc3c2)cc1	158 to 164 °C
COc1cccc(Cc2cnc(N[N+](=O)[O-])[nH]c2=O)c1	178 to 179 °C

// melting point value for COC(=O)C1CCCCN1S(N)(=O)=O (stereo not given) : 72 to 74 °C

compound "COc1ccc(C(=O)Nc2cc(NC(=O)c3cccc(N(C)S(C)(=O)=O)c3)ccc2C)cc1OC" , melting point observed: 168 to 169 °C

The compound listed as Cc1nc(NC2CC2)ccc1N1CCCn2c1nc1c(Cl)ccc(C(OC(F)F)C(F)(F)F)c12 (stereo not given) has a reported melting point of 168 to 170 °C

For Cc1ccc(C(C)Oc2cnn(C(C)(C)C)c(=O)c2Cl)cc1 (stereo not given) the compound record lists melting point as 104 to 106 °C

// field: melting point; key: Fc1ccc(SC(c2cc(F)ccc2F)c2cc(Cl)ncc2Cl)cc1 (stereo not given) ; value = 95 to 97 °C

###

readout-kind: melting point

Known results for molecules:
molecule	melting point
COc1ccc(CCNC(=O)C2CCC2)cc1C	103 to 104 °C
Cn1cc(-c2cccc(C#N)c2)c(=O)c(-c2cccc(C#N)c2)c1	322 to 327 °C

The molecule listed as Cc1nn(C)c(F)c1C(=O)Nc1ccccc1C(C)C(O)C(C)C (configuration not stated) has a reported melting point of 118 °C

Given item "COc1cc2sc(C(N)=O)cc2c(Cl)c1OC" , the value recorded as its melting point is 180 to 182 °C

For "COc1ccc(-c2cn(-c3cccc(OCCCl)c3)c3ncnc(N)c23)cc1OCc1ccccc1" the molecule record lists melting point as 170 °C

Form field melting point, entry "CCCN(CC)c1cc(C)nc(Oc2c(C)cc(Cl)cc2C)c1C" : 74 to 76 °C

Field melting point (entry "Nc1ncccc1OCc1ccccc1Br" ) reads 99 to 100 °C

Just so you know, measured melting point for CS(=O)(=O)OC1CCN(c2ccc(N)cc2)C1 (configuration not stated) came out at 203 °C

Lab book: melting point of Cc1cccc(C)c1NC(=O)C(C)N1CSCC1=O (configuration not stated) noted as 153 to 154 °C

Data point: "O=Cc1ccc(NCc2ccc(F)cc2)cn1" ; melting point = 167 to 169 °C

###

readout-kind: melting point

compound	readout-kind	test-result
COc1ccc(C(C)(C)C)cc1NC(=O)Nc1ccc(-c2cnc3c(c2)NC(=O)CS3(=O)=O)c2ccccc12	melting point	209 to 211 °C
O=C(NO)c1ccc(CNC(=O)c2[nH]c(-c3ccccc3)cc2-c2ccc(C(F)(F)F)cc2)cc1	melting point	137 to 138 °C
Cc1ccc(C(=O)N[C@H]2CC[C@H](O)CC2)c(Nc2ccc3[nH]ncc3c2)n1	melting point	> 280 °C
C(=CCN(C1CCCCC1)C1CCCCC1)CN(C1CCCCC1)C1CCCCC1	melting point	136 to 138 °C

// next entry
Value of measured melting point for the entry CCC(=O)NC[C@@H]1C[C@H]1c1c(I)ccc2c1CCO2 (relative stereo) : 148 to 149 °C

###

readout-kind: melting point

Worked examples, 3 compounds total:
compound	melting point
COCC(=O)NCc1cccc2c1C(=O)N(C1CCC(=O)NC1=O)C2=O (stereo unspecified)	196 to 198 °C
COc1ccc(-c2cccc(Nc3nccc(-c4sc(N)nc4-c4ccccc4)n3)c2)cc1OC	236 to 237 °C
COc1ccccc1OCCOS(N)(=O)=O	81.5 to 83 °C

As a next step, examine the compound that follows.
For reference, reported melting point for "CN(C)c1ncc(-c2cccc(Nc3ccc(-n4cccc4)cc3[N+](=O)[O-])c2)cn1" stands at 166 to 168 °C
